The reported numbers originate from patent US12203124B2.

- Test system: E. coli strains
- assaySummary: CLSI overnight reference method, broth microdilution MIC
- Type: cell-based
- studyConditions: E. coli strain Clinical Sample 7; unit assumed
reportedEndpoint: MIC (CLSI Ref) (µg/mL)
Reply numerically in µg/mL, unit not repeated.

Request: Tell me the measured MIC (CLSI Ref) of CC(C)(O/N=C(\C(=O)N[C@@H]1C(=O)N2C(C(=O)[O-])=C(C[n+]3ccccc3)CS[C@H]12)c1csc(N)n1)C(=O)O [CAZ, Ceftazidime] , please.
Response: 0.25

Request: Next up: NCC[C@H](O)C(=O)N[C@@H]1C[C@H](N)[C@@H](O[C@H]2O[C@H](CN)[C@@H](O)[C@H](O)[C@H]2O)[C@H](O)[C@H]1O[C@H]1O[C@H](CO)[C@@H](O)[C@H](N)[C@H]1O [AMK, Amikacin]
Response: 2

Request: Input CN(C)[C@@H]1C(=O)C(C(N)=O)=C(O)[C@@]2(O)C(=O)C3=C(O)c4c(O)cccc4[C@@](C)(O)[C@H]3C[C@@H]12 [TET, Tetracycline]
Response: 4

Request: Then C[C@@H](O)[C@H]1C(=O)N2C(C(=O)O)=C(S[C@@H]3CN[C@H](C(=O)Nc4cccc(C(=O)O)c4)C3)[C@H](C)[C@H]12 [ERT, Ertapenem] ?
Response: 0.008

Request: Next molecule up: NC[C@H]1O[C@H](O[C@H]2[C@H](O)[C@@H](O[C@H]3O[C@H](CO)[C@@H](O)[C@H](N)[C@H]3O)[C@H](N)C[C@@H]2N)[C@H](N)C[C@@H]1O [TOB, Tobramycin]
Response: 1

----------
- System: E. coli strains
- assaySummary: CLSI overnight reference method, broth microdilution MIC
- Format: cell-based
- studyConditions: E. coli strain Clinical Sample 10; unit assumed
Assign MIC (CLSI Ref) to each entry below.
Dear colleague, please return just the value in µg/mL, with no unit written.

Request: Given the entry C[C@@H](O)[C@H]1C(=O)N2C(C(=O)O)=C(S[C@@H]3CN[C@H](C(=O)Nc4cccc(C(=O)O)c4)C3)[C@H](C)[C@H]12 [ERT, Ertapenem] , report its measured MIC (CLSI Ref).
Response: 0.008

Request: Same thing, different compound: C[C@H]1COc2c(N3CCN(C)CC3)c(F)cc3c(=O)c(C(=O)O)cn1c23 [LVX, Levofloxacin]
Response: 8

Request: // same read-out, input: CC(C)(O/N=C(\C(=O)N[C@@H]1C(=O)N2C(C(=O)[O-])=C(C[n+]3ccccc3)CS[C@H]12)c1csc(N)n1)C(=O)O [CAZ, Ceftazidime]
Response: 0.12

Request: Query NCC[C@H](O)C(=O)N[C@@H]1C[C@H](N)[C@@H](O[C@H]2O[C@H](CN)[C@@H](O)[C@H](O)[C@H]2O)[C@H](O)[C@H]1O[C@H]1O[C@H](CO)[C@@H](O)[C@H](N)[C@H]1O [AMK, Amikacin] next
Response: 8

Request: Do the same for CN(C)[C@@H]1C(=O)C(C(N)=O)=C(O)[C@@]2(O)C(=O)C3=C(O)c4c(O)cccc4[C@@](C)(O)[C@H]3C[C@@H]12 [TET, Tetracycline] please
Response: 4

Request: Repeat for the following compound: NC[C@H]1O[C@H](O[C@H]2[C@H](O)[C@@H](O[C@H]3O[C@H](CO)[C@@H](O)[C@H](N)[C@H]3O)[C@H](N)C[C@@H]2N)[C@H](N)C[C@@H]1O [TOB, Tobramycin]
Response: 16

----------
- Test system: E. coli strains
- assaySummary: CLSI overnight reference method, broth microdilution MIC
- Format: cell-based
- studyConditions: E. coli strain Clinical Sample 8; unit assumed
Please respond with reported MIC (CLSI Ref) for every item in the list.
Reply numerically in µg/mL, unit not repeated.

Request: Fill in: MIC (CLSI Ref) of NC[C@H]1O[C@H](O[C@H]2[C@H](O)[C@@H](O[C@H]3O[C@H](CO)[C@@H](O)[C@H](N)[C@H]3O)[C@H](N)C[C@@H]2N)[C@H](N)C[C@@H]1O [TOB, Tobramycin] is ___
Response: 2

Request: Please give the result for C[C@H]1[C@H](NC(=O)/C(=N\OC(C)(C)C(=O)O)c2csc(N)n2)C(=O)N1S(=O)(=O)O [ATM, Aztreonam] too.
Response: 64

Request: Input NCC[C@H](O)C(=O)N[C@@H]1C[C@H](N)[C@@H](O[C@H]2O[C@H](CN)[C@@H](O)[C@H](O)[C@H]2O)[C@H](O)[C@H]1O[C@H]1O[C@H](CO)[C@@H](O)[C@H](N)[C@H]1O [AMK, Amikacin]
Response: 4

Request: Entry to check: CN(C)[C@@H]1C(=O)C(C(N)=O)=C(O)[C@@]2(O)C(=O)C3=C(O)c4c(O)cccc4[C@@](C)(O)[C@H]3C[C@@H]12 [TET, Tetracycline]
Response: 8

----------
- System: E. coli strains
- assaySummary: CLSI overnight reference method, broth microdilution MIC
- Assay type: cell-based
- studyConditions: E. coli strain Clinical Sample 8; unit assumed
Task for the reader: assign each of the following compounds its reported MIC (CLSI Ref).
Provide the reading as a plain figure in µg/mL.

Request: Find the recorded MIC (CLSI Ref) belonging to CO/N=C(\C(=O)N[C@@H]1C(=O)N2C(C(=O)O)=C(CSc3nc(=O)c(=O)[nH]n3C)CS[C@H]12)c1csc(N)n1 [CRO, Ceftriaxone] and report it.
Response: 64

Request: Next: C[C@@H](O)[C@H]1C(=O)N2C(C(=O)O)=C(S[C@@H]3CN[C@H](C(=O)Nc4cccc(C(=O)O)c4)C3)[C@H](C)[C@H]12 [ERT, Ertapenem]
Response: 0.25

----------
Give measured MIC (CLSI Ref) for each item. Keep answers brief.
- System: E. coli strains
- assaySummary: CLSI overnight reference method, broth microdilution MIC
- Assay type: cell-based
- studyConditions: E. coli strain Clinical Sample 7; unit assumed

Request: What MIC (CLSI Ref) value was documented for this compound, C[C@H]1COc2c(N3CCN(C)CC3)c(F)cc3c(=O)c(C(=O)O)cn1c23 ?
Response: < 0.06 µg/mL

Request: Lookup CO/N=C(\C(=O)N[C@@H]1C(=O)N2C(C(=O)O)=C(CSc3nc(=O)c(=O)[nH]n3C)CS[C@H]12)c1csc(N)n1
Response: < 0.12 µg/mL

Request: Continue with C[C@@H](O)[C@H]1C(=O)N2C(C(=O)O)=C(S[C@@H]3CN[C@H](C(=O)N(C)C)C3)[C@H](C)[C@H]12
Response: < 0.06 µg/mL

Request: Entry C[C@H]1[C@H](NC(=O)/C(=N\OC(C)(C)C(=O)O)c2csc(N)n2)C(=O)N1S(=O)(=O)O please
Response: < 0.25 µg/mL

Request: How about CC1(C)S[C@@H]2[C@H](NC(=O)[C@H](N)c3ccccc3)C(=O)N2[C@H]1C(=O)O ?
Response: > 32 µg/mL

----------
- Test system: E. coli strains
- assaySummary: CLSI overnight reference method, broth microdilution MIC
- Format: cell-based
- studyConditions: E. coli strain Clinical Sample 10; unit assumed
Provide the recorded MIC (CLSI Ref) for the entries that follow.

Request: Need MIC (CLSI Ref) of CC1(C)S[C@@H]2[C@H](NC(=O)[C@H](N)c3ccccc3)C(=O)N2[C@H]1C(=O)O [AMP, Ampicillin] , thanks.
Response: > 32 µg/mL

Request: Follow-up item: C[C@@H](O)[C@H]1C(=O)N2C(C(=O)O)=C(S[C@@H]3CN[C@H](C(=O)N(C)C)C3)[C@H](C)[C@H]12 [MEM, Meropenem]
Response: < 0.06 µg/mL

Request: Similarly, CO/N=C(\C(=O)N[C@@H]1C(=O)N2C(C(=O)O)=C(CSc3nc(=O)c(=O)[nH]n3C)CS[C@H]12)c1csc(N)n1 [CRO, Ceftriaxone] ?
Response: < 0.12 µg/mL

Request: And for C[C@H]1[C@H](NC(=O)/C(=N\OC(C)(C)C(=O)O)c2csc(N)n2)C(=O)N1S(=O)(=O)O [ATM, Aztreonam] ?
Response: < 0.25 µg/mL

----------
Record form. Attribute: MIC (CLSI Ref). Fill in for each entry.
- Test system: E. coli strains
- assaySummary: CLSI overnight reference method, broth microdilution MIC
- Format: cell-based
- studyConditions: E. coli strain Clinical Sample 8; unit assumed

Request: # value lookup — system E. coli strains, readout MIC (CLSI Ref), item C[C@@H](O)[C@H]1C(=O)N2C(C(=O)O)=C(S[C@@H]3CN[C@H](C(=O)N(C)C)C3)[C@H](C)[C@H]12
Response: < 0.06 µg/mL

Request: What would you report for CC1(C)S[C@@H]2[C@H](NC(=O)[C@H](N)c3ccccc3)C(=O)N2[C@H]1C(=O)O ?
Response: > 32 µg/mL

Request: Also need C[C@H]1COc2c(N3CCN(C)CC3)c(F)cc3c(=O)c(C(=O)O)cn1c23 , thanks.
Response: < 0.06 µg/mL
